Items are presented alongside their recorded folding stability dG unfold.
EXPERIMENT_NOTES: folding stability dG unfold (combined trypsin and chymotrypsin); higher = more stable
A number alone suffices; assume kcal/mol.

Consider the following illustrative entries.
SAGGMVLEVEFTGPLSEVEAFIEELKAKPGVELLSVEIEVKPLPGPPVRYRVKLEVKIYDPENPVLLSAGGS [r8_374_JUSTAS]
2.74
SAGGMTLEITFPPNVKKVRVEFDEETNEVKVEVEEVDGELVIRVEVPPGQELSEEELERLKKLLEELSAGGS [r16_359_TrROS_Hall]
1.65

Item: SAGGSAGGSAGGMIEKIEVTKLPDGTYKVTITIPLPNGPVITKTITIPPSETVEDAIAKLSAGGSAGGSAGG [r7_54_JUSTAS] | folding stability dG unfold: 2.31

----------
EXPERIMENT_NOTES: folding stability dG unfold from trypsin proteolysis; higher = more stable
Group membership follows folding stability dG unfold per the scheme bottom range: < 0.3 kcal/mol; center range: ≥ 0.3 kcal/mol and < 2 kcal/mol; top range: ≥ 2 kcal/mol

Any idea which band SAGGSAMIEIKVEVNGKTYRITIEKNEDGTLTLTVYDEKTGKKTEIEIPLENLEELKKLNVKRIEISAGGSA [r15_629_TrROS_Hall] is in? center range

Any idea which band SAGGSAGGSAGMKVVVELEVTFDSEEEAEAVAKAIAEELGSEDVVVKVIRKPVELGPGLKSAGGSAGGSAGG [r17_285_JUSTAS] is in? bottom range

Any idea which band KKKKKKKKKKKKKEKVKVRIRIRLKVKDKETGEWKEIEVEIEIEMSKEEAEEIAKKLAEKYNFEIVEIEIES [r1_488_TrROS_Hall] is in? top range

Any idea which band SDPGHKFKMEIVREIYLPGQIRIFVHKMEHPNGNPWVNVMVRNPDGQMEPIAMVPSDDPDAKDEALKLIKSA [r9_1069_TrROS] is in? bottom range

Any idea which band MRFEFPLEDGGRVEVEMRPLPDGPVVLDVKITLPNGEEITIPFVFPREEFPDMDMEEIARRVVEEAIRLAKS [r1_92_TrMRF] is in? top range

Any idea which band SAGGSAGGMTAEEVAEWIADEFMENHPNIEIKPVATEDGEVKIDIRHPNSGMTHTFKIPPGQPLSAGGSAGG [r6_446_TrROS] is in? bottom range

Any idea which band SAAKITEVDVEVGGDTITTTFRLEIDGKPYLAVTRLEPLTDPDGNPRFIAVTELYDEDGNLVATLPSDLSAG [r14_465_TrMRF] is in? center range

Any idea which band SAGGSAGGMVLVLRFPLGEPALIALYDPETGEVHVYDPGTRELLGTFPLPIEDFLELGAEAEPVSAGGSAGG [r6_831_TrMRF] is in? center range

Any idea which band SAGGSSVTTTVSEETLPDGLRLLTTTTTTTTVPGKPDLRITTVTTTALDPVTGETTAVGTSTTVVAPSAGGS [r8_65_JUSTAS] is in? center range

Any idea which band SAGGSAIKLPSGVKIEFKKTEDGKYIVRVTLPDGKPIELEFEGDPEGPNNITPEEINDAILEKIKSSAGGSA [r15_780_TrMRF] is in? top range

Any idea which band SAGGSLPVVDGPSDLVETTVYEDGTIEIKVERAEPPGVPTVRTLTITLEPPVGPPKVPPGNPKYLGSAGGSA [r2_368_JUSTAS] is in? bottom range

Any idea which band SAGGSPSMSPEELAKREKERILEELRKKGGSKTIPMKVEITVPDEKGNTTKYNIEINITVEVPEDKLSAGGS [r16_550_JUSTAS] is in? center range
